Test system: A549/ATCC NSCLC
Assay remarks: NCI-60 one-dose screen, 48 h (100 = growth as untreated, 0 = no growth, -100 = all killed)
Assay conditions: 10 µM unless noted
This is part of a sample that, as a whole, favours compounds with a hit. Of some 83,000 tested, about 20% had one in any assay. Active and inactive are the calls of the source. How the source made its calls: active means growth percent below 10; inactive means the rest.
Quantity name: growth

Items follow; give growth for each.
1. Clc1ccc(Nc2ncnc3c2sc2ncccc23)cc1
2. CCC1CCc2nc3sc(C(=O)Nc4cccc(F)c4)c(N)c3cc2C1 (stereo unspecified)

a:
1. 27.9% (inactive)
2. 66.3% (inactive)

Items follow; give growth for each.
1. COc1cccc(/C=N/N=C(N)N)c1
2. CC1=C(O)C(=O)C(c2c(C)cc(C)c(Br)c2C)=C(O)C1=O
3. COc1cc(Nc2ccnc3ccc(Br)cc23)cc(OC)c1OC
4. CCCCCCCCCCCCCC[N+](C)(C)CCCCCCCCCCCCCC

a:
1. 102% (inactive)
2. 44.1% (inactive)
3. 37.5% (inactive)
4. 55.3% (inactive)

Items follow; give growth for each.
1. COc1cc(NC(C)CCCN)c2ncccc2c1Sc1ccc(Cl)cc1 (stereo unspecified)
2. COc1cc(-c2csc(NC(=O)Nc3cccc(C(F)(F)F)c3)n2)cc(OC)c1OC
3. CC(=O)O[C@H]1[C@H](CC#CC#CC[C@@H]2C[C@]3(C)[C@H]4CC=C5[C@H]6[C@@H](C)[C@H](C)CC[C@]6(C(=O)NCCCCCCCCN)CC[C@@]5(C)[C@]4(C)CC[C@H]3C(C)(C)[C@H]2OC(C)=O)C[C@]2(C)[C@H]3CC=C4[C@H]5[C@@H](C)[C@H](C)CC[C@]5(C(=O)NCCCCCCCCN)CC[C@@]4(C)[C@]3(C)CC[C@H]2C1(C)C
4. C1=C\CCCCN2CC[C@H]3[C@H](CCCC/C=C\CCCN4C[C@@H](CCCCC/1)C[C@@H]3C4)C2
5. N#Cc1nc(-c2ccc(Cl)cc2)cc(-c2ccc(Nc3nc(N4CCCCC4)nc(N4CCCCC4)n3)cc2)c1N
6. COc1ccc(/C(=C\c2cc(OC)c(OC)c(OC)c2)C(=O)N2CCCNCC2)cc1
7. CN(C)CCOc1nc2c3cccnc3cc(-c3cccc(Cl)c3)c2c2ncccc12
8. COc1ccc2[nH]c(O)c(/C=c3/ccc4c(c3)N=C(c3ccc(F)cc3)N=4)c2c1

a:
1. 59.1% (inactive)
2. 34.2% (inactive)
3. 102% (inactive)
4. 48.9% (inactive)
5. 106% (inactive)
6. 105% (inactive)
7. 22% (inactive)
8. 37.6% (inactive)

Items follow; give growth for each.
1. FC1(F)CCN(Cc2c[nH]c3cc(Cl)ccc23)C[C@H]1CCc1ccccc1
2. COc1ccc2[nH]cc(C(c3ccc(Cl)cc3)N3CCCC3)c2c1 (stereo unspecified)
3. COc1ccc(/C=C/C(=O)c2ccc(NC(=O)CSc3nnc(-c4ccc(Cl)cc4)n3-c3ccccc3)cc2)cc1
4. CCCCCCCCCCCC1=NC(C)(C)CN1C(C)(C)CO
5. COc1ccc(-c2nn(-c3cccc(Cl)c3)cc2/C=C2\C(=N)N(c3ccccc3)N=C2N)cc1

a:
1. 43% (inactive)
2. 98.8% (inactive)
3. 74% (inactive)
4. 68.8% (inactive)
5. 36.6% (inactive)

----------
Kindly state growth for each of the entries shown.
Tested on: CCRF-CEM leukemia
Assay remarks: NCI-60 one-dose screen, 48 h (100 = growth as untreated, 0 = no growth, -100 = all killed)
Assay conditions: 10 µM unless noted
The panel holds about 83,000 compounds, 20% with a hit somewhere; the sample as a whole holds those more often.
Numbers only, in %.

COc1ccc(CCN2COc3c([C@@H](C)CCC=C(C)C)ccc(C)c3C2)cc1OC | 62.6
c1ccc(C2=Nc3ccccc3SC2)cc1 | 86.9
Brc1cccc(-n2ncc3c(Nc4ccc(-c5nnc(-c6ccccc6)o5)cc4)ncnc32)c1 | 118

Items follow; give growth for each.
1. C/C(=N\OC(=O)Nc1cccc(Cl)c1)c1ccccc1
2. COc1cc(C2C=C(C)N=C3SC=NN32)cc(OC)c1OC (stereo not given)
3. COc1ccc(C2CC(c3cccc(Nc4ccnc5cc(Cl)ccc45)c3)=NN2c2ccccc2)cc1 (stereo not given)
4. Fc1cnccc1-c1nc2ccc3[nH]ncc3c2c2c1CCCC2
5. COc1cc2nccc(Oc3ccc(NC(=O)C4(C(=O)Nc5ccc(F)cc5)CC4)cc3)c2cc1O
6. Cc1cccc(C(=O)O)n1
7. Clc1cn2cc(-c3ccc(Cl)c(Cl)c3Cl)nc2s1

a:
1: 89.1; 2: 90.7; 3: 57.9; 4: 16.1; 5: 29; 6: 146; 7: 107

----------
Tested on: COLO 205 colon
Assay remarks: NCI-60 one-dose screen, 48 h
Assay conditions: 10 µM unless noted
About 83,000 compounds went through this panel and 20% of them were active in at least one assay; those are over-represented in the sample as a whole. Activity calls are given as the source filed them. Rule for the calls: active = growth percent below 10; inactive = the rest.
Assign a class; possible classes are true (1) = active, false (0) = inactive

FC1(F)CCN(Cc2c[nH]c3cc(Cl)ccc23)C[C@H]1CCc1ccccc1 | false (0)

Switching to the query record.
q: I'd appreciate the recorded outcome for `O=C(Nc1ccc(Oc2ccc(NC(=O)Nc3ccccc3Cl)cc2)cc1)Nc1ccccc1Cl` from this test.
a: false (0)

----------
Kindly state growth for each of the entries shown.
Test system: SNB-19 CNS
Assay remarks: NCI-60 one-dose screen, 48 h (100 = growth as untreated, 0 = no growth, -100 = all killed)
Assay conditions: 10 µM unless noted
This is part of a sample that, as a whole, favours compounds with a hit. Of some 83,000 tested, about 20% had one in any assay.
Answers are plain numbers, in %.

Some entries whose results are on file:
COc1cc(C2CC(c3ccc(Nc4ccnc5cc(Cl)ccc45)cc3)=NN2c2ccccc2)cc(OC)c1OC (centres undefined) | 79.7
COc1ccc(Br)c2ccccc12 | 116
CC1=C(C(=O)Nc2ccc(F)cc2)C(c2ccc(C)cc2)C2=C(CC(C)(C)CC2=O)N1 (centres undefined) | 92.5

Moving on to the next compound.
q: Need growth of `CCCCc1n(Cc2ccc3ccccc3n2)cc[n+]1Cc1ccc2ccccc2n1` , thanks.
a: 10.4

----------
System: HOP-62 NSCLC
Assay remarks: NCI-60 one-dose screen, 48 h (100 = growth as untreated, 0 = no growth, -100 = all killed)
Assay conditions: 10 µM unless noted
About 83,000 compounds went through this panel and 20% of them were active in at least one assay; those are over-represented in the sample as a whole. The source made the active and inactive calls. Rule for the calls: active = growth percent below 10; inactive = the rest.
Kindly state growth for each of the entries shown.

Some entries whose results are on file:
Nc1cccc(S(=O)(=O)c2cccc(N)c2)c1 | 111% (inactive)
C[C@@H](C[C@H](CC1CC1)c1ccccc1)c1ccc2ccccc2c1 | 104% (inactive)
C#CCNC(=S)N/N=C(\C)c1ccccn1 | 26.5% (inactive)

Moving on to the next molecule.
q: Need growth of `Cc1cc(Cl)c2ccc(N(C)C)cc2n1` , thanks.
a: 95.5% (inactive)

----------
System: 786-0 renal
Assay remarks: NCI-60 one-dose screen, 48 h (100 = growth as untreated, 0 = no growth, -100 = all killed)
Assay conditions: 10 µM unless noted
This is part of a sample that, as a whole, favours compounds with a hit. Of some 83,000 tested, about 20% had one in any assay. Activity calls are given as the source filed them. How the source made its calls: active means growth percent below 10; inactive means the rest.
Kindly state growth for each of the entries shown.

Some entries whose results are on file:
CC(C)=CCC[C@H](C)c1ccc(C)c2c1OCN(CCO)C2 | 61% (inactive)
COc1ccc(NC(=O)c2ccc(C(F)(F)F)nc2Nc2ccc(Cl)cc2C)cc1Cl | 17% (inactive)
Nc1c(C(=O)c2ccc(Br)cc2)sc2nc3c(cc12)CCCC3 | 98.2% (inactive)

Moving on to the next molecule.
q: Need growth of CC1(C)C2CCC(O)(C(=O)O)C1C2 (centres undefined) , thanks.
a: 107% (inactive)

----------
Test system: OVCAR-5 ovarian
Assay remarks: NCI-60 one-dose screen, 48 h
Assay conditions: 10 µM unless noted
This is part of a sample that, as a whole, favours compounds with a hit. Of some 83,000 tested, about 20% had one in any assay. Activity calls are given as the source filed them. The calls were made as follows: active = growth percent below 10; inactive = the rest.
Assign a class; possible classes are active, inactive

A selection of reference data follows.
Fc1ccc2c(CN3CCO[C@H](COc4cccc(Cl)c4)C3)c[nH]c2c1 | inactive
CC(=O)OC1Oc2cc(C)c(C)cc2-c2oc(=O)c(-c3cc4ccccc4oc3=O)cc21 (stereo unspecified) | inactive
Fc1[nH]nc2ccc([C@@H]3Nc4ccc5[nH]ncc5c4[C@H]4C5CCC(C5)[C@@H]34)cc12 (stereo partly specified) | inactive
COc1cc(-c2csc(NC(=O)Nc3cccc(C(F)(F)F)c3)n2)cc(OC)c1OC | inactive
CNCc1cccc2c1OCCOCCOCCC(C)S(=O)(=O)c1ccc(cc1)-c1cnc(N)c(n1)C(=O)N2 (stereo unspecified) | inactive
C#CCNC(=S)N/N=C(\C)c1ccccn1 | inactive

q: I'd appreciate the recorded outcome for `COc1ccc(-c2nc(-c3ccccc3OCc3ccccc3OC)nc(C)c2C(C)=O)cc1` from this test.
a: inactive

q: I'd appreciate the recorded outcome for `COc1ccc(/C=c2\c(=O)n(-c3ccccc3)c3nn4c(=O)c(=O)[nH]nc4n23)cc1` from this test.
a: inactive

q: I'd appreciate the recorded outcome for `O=c1c2sc3ncc(Cl)cc3c2nnn1-c1cccc(Cl)c1` from this test.
a: inactive

q: I'd appreciate the recorded outcome for CCCCNCC(O)c1cc(-c2ccc(C(F)(F)F)cc2)nc(-c2ccc(C(F)(F)F)cc2)c1 (stereo unspecified) from this test.
a: active

q: I'd appreciate the recorded outcome for `NC(=S)N/N=C(/c1cccs1)C1CC1` from this test.
a: inactive

q: I'd appreciate the recorded outcome for `N#Cc1c(N)c(C(=O)c2ccc3c(c2)OCCO3)n2c1CCCC2` from this test.
a: inactive

q: I'd appreciate the recorded outcome for `O=C(C(=O)c1cccnc1)c1cccnc1` from this test.
a: inactive

q: I'd appreciate the recorded outcome for `Clc1ccc(Nc2ncnc3c2sc2ncccc23)c(Cl)c1` from this test.
a: inactive

q: I'd appreciate the recorded outcome for CCOC(C)(c1ccc(Cl)cc1)C1CCNCC1 (stereo unspecified) from this test.
a: inactive

q: I'd appreciate the recorded outcome for `CN(C)c1ccc(N2Cc3ccccc3OC3=C2C(=O)c2c(O)ccc(O)c2C3=O)cn1` from this test.
a: active
